Reference source for all entries: patent US11236055B2

Kindly supply the reported EC50 values for the records listed here.
- targetSystem: human TGR5 receptor (Homo sapiens, UniProt Q8TDU6)
- Sequence (Q8TDU6 whole entry): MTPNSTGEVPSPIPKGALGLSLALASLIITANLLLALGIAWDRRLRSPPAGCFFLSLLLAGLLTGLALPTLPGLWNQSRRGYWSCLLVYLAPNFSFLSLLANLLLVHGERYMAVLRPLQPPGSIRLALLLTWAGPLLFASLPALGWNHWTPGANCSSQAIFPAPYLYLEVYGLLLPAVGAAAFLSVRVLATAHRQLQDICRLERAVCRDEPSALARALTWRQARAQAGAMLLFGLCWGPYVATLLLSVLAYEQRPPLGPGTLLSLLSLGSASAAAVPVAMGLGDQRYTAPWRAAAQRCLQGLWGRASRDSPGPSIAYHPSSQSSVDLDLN
- assayMethodText: Human TGR5 cAMP production assay
- experimentalParameters: human TGR5, luminescent cAMP assay; coded A-D; read-out: Human TGR5 Lum. cAMP Activity (EC50)
- Procedure: Human TGR5 cAMP Production Assay We evaluated the Compounds of the present invention for their ability to induce cAMP production using CHO-K1 cells overexpressing the human TGR5 receptor. […] Test compounds were serially diluted (half-log dilutions) in DMSO and then further diluted 1:50 in PBS, 10 mM HEPES buffer. […] Luminescent signal was then detected using the Viewlux instrument (Perkin-Elmer, Waltham, Mass.). […]

Record request: EC50 value, item Cc1cnccc1-c1cccc([C@H](C)N(CCCC(=O)NCCNS(=O)(=O)CC(=O)O)S(=O)(=O)c2cccc(Cl)c2C)c1 [Compound 26AA]
< 100 nM

// query: CCc1cnccc1-c1cccc([C@H](C)N(CCCCNS(=O)(=O)CCC(=O)O)S(=O)(=O)c2cccc(Cl)c2C)c1 [Compound 26AE]
< 100 nM

// query: Cc1cnccc1-c1cccc([C@H](C)N(CCCC(=O)NCCNS(=O)(=O)CCC(=O)O)S(=O)(=O)c2cccc(Cl)c2C)c1 [Compound 26AB]
< 100 nM

// query: COc1cnccc1-c1cccc(C2CN(C(=O)CCC(=O)O)CCN2S(=O)(=O)c2cccc(Cl)c2C)c1 (centres unmarked) [Compound 46AH]
100 to 999 nM

// query: Cc1cnsc1-c1cccc([C@H](C)N(CCCC(=O)NCCS(=O)(=O)O)S(=O)(=O)c2cccc(Cl)c2C)c1 [Compound 20BP]
100 to 999 nM

// query: Cc1cnccc1-c1cccc([C@H](C)N(CCCC(=O)O)S(=O)(=O)c2ccccc2C(F)(F)F)c1
< 100 nM

// query: Cc1cnccc1-c1cccc(C2CN(C(=O)CCC(=O)O)CCN2S(=O)(=O)c2ccccc2C)c1 (centres unmarked) [Compound 46AI]
100 to 999 nM

// query: O=S(=O)(NCc1cccc(-c2ccncc2)c1)c1cccc(F)c1
1000 to 30000 nM

// query: O=[N+]([O-])c1ccccc1S(=O)(=O)NCc1cccc(-c2ccncc2)c1
1000 to 30000 nM

// query: COc1cnccc1-c1cccc(C(C)(C)NS(=O)(=O)c2ccccc2Cl)c1
100 to 999 nM

// query: Cc1cnccc1-c1cccc(C(C)(C)N(CCCNS(=O)(=O)CCNC(=O)NCCS(=O)(=O)O)S(=O)(=O)c2cccc(Cl)c2C)c1 [Compound 28AD]
< 100 nM

// query: Cc1c(Cl)cccc1S(=O)(=O)N(CCCC(=O)NCCS(=O)(=O)O)C(C)(C)c1cccc(-c2ccncc2CO)c1 [Compound 20AO]
< 100 nM

// query: COc1cnccc1-c1cccc(C(C)(C)NS(=O)(=O)c2ccc(C#N)cc2Cl)c1
100 to 999 nM

// query: Cc1c(Cl)cccc1S(=O)(=O)N(CCCC(=O)NCCS(=O)(=O)O)[C@@H](C)c1cccc(-c2ccncc2CO)c1 [Compound 20AP]
100 to 999 nM

====

- assayMethodText: Comparison of PK in DIO mice and lean mice
- Type: in vivo, mouse
- experimentalParameters: C57BL/6N, mouse, plasma, po, 10 mg/kg, Non-fasted DIO mice, 10 mg/kg oral
readoutType: Cmax (nM)
Give just the number in nM; leave the unit off.

Record request: Cmax value, item Cc1cnccc1-c1cccc(C(C)(C)N(CCCC(=O)NCCS(=O)(=O)O)S(=O)(=O)c2ccccc2C(F)(F)F)c1 [Compound 20AA]
1.7
